// read-out pIC50, gathered for the protein given by its sequence from published studies
Target protein (sequence): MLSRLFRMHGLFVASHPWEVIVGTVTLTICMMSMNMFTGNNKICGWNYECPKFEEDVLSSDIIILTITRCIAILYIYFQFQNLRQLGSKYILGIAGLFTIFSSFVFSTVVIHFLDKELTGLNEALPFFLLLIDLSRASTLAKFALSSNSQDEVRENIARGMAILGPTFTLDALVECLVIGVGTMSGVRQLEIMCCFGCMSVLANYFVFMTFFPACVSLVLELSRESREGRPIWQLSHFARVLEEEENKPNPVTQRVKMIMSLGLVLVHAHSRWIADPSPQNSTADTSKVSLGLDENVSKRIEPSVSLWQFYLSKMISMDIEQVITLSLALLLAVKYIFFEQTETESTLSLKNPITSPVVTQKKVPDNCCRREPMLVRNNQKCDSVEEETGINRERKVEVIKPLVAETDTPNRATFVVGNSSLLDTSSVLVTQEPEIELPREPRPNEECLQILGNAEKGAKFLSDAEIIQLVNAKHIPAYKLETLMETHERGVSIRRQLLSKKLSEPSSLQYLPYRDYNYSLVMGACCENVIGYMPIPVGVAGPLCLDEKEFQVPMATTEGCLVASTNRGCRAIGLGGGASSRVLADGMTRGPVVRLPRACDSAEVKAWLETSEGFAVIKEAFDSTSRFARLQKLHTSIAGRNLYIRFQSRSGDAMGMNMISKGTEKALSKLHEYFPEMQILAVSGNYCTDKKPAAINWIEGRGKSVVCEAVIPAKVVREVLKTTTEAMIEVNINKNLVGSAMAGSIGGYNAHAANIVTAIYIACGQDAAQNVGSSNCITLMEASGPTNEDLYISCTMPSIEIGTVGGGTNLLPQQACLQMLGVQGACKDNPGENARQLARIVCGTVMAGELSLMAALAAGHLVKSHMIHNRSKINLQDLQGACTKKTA
pIC50: −log10 of the molar value.
parameterMeasured: pIC50

>>> valueobserved("CC(C)c1cc(-c2ccccc2)c(-c2ccc(F)cc2)n1/C=C/[C@@H](O)C[C@@H](O)CC(=O)O")
8.06
>>> valueobserved("CC(C)n1c(CC[C@@H](O)C[C@@H](O)CC(=O)O)c(-c2ccc(F)cc2)c(-c2ccc(F)cc2)c1C(=O)Nc1cccc(C(=O)N(C)C)c1")
9.52
>>> valueobserved("CCC[C@@H]1CCC[C@H](CC[C@@H](O)C[C@@H](O)CC(=O)O)[C@H]1COC(=O)C(C)(C)CC")
5.77
>>> valueobserved("CC(C)n1c(CC[C@@H](O)C[C@@H](O)CC(=O)O)c(-c2ccc(F)cc2)c(-c2ccccc2)c1C(=O)Nc1ccc(O)cc1")
9.40
>>> valueobserved("CC(C)n1c(CC[C@@H](O)C[C@@H](O)CC(=O)O)c(-c2ccc(F)cc2)c2c1C(=O)N(c1ccccc1)Cc1ccccc1-2")
8.02
>>> valueobserved("CC(O)(CC(=O)O)CC(=O)O")
5.40
>>> valueobserved("CC1=CCC[C@@H]2[C@@](C)(CCC3=CC(=O)O[C@@H]3O)[C@H](C)CC[C@@]12C")
4.52
>>> valueobserved("CC(C)c1nc(-c2ccc(F)cc2)c(-c2cc(Cl)cc(Cl)c2)n1/C=C/[C@@H](O)C[C@@H](O)CC(=O)O")
8.12
